Tested on: SF-539 CNS
Assay info: NCI tumour cell line growth inhibition, 48 h; in the data active = GI50 below about 0.43 µM; inactive = the rest
Reply using exactly one outcome from 1.0 (active), 0.0 (inactive)

Consider the following illustrative entries.
1) CN1C(=O)[C@@H](NC(=O)[C@H](CCC(F)(F)F)[C@H](CCC(F)(F)F)C(N)=O)N=C(c2ccccc2)c2ccccc21 ... 0.0
2) CC(=O)[O-].[Mn+3].[O-]c1ccccc1C=NCCN=Cc1ccccc1[O-] ... 0.0
3) O=[N+]([O-])c1ccccc1NC1c2ccccc2Oc2ccccc21 ... 0.0
4) CCCCCCCCCc1cc[n+](CC(=O)c2ccc([N+](=O)[O-])cc2)cc1 ... 0.0
5) CN1CCN(c2cc(C(=O)Nc3cc4cc(-c5cnn(C)c5)ccc4cn3)ccn2)CC1 ... 1.0

Q) Any idea what this test logged for Fc1ccc(-c2ncn(C3CCNCC3)c2-c2ccnc(Oc3ccc(F)c(F)c3)n2)cc1 ?
A) 0.0

Q) Any idea what this test logged for CN1CCN(c2ccc(Nc3nc(N)c(C(=O)c4ccc5c(c4)OCCO5)s3)cc2)CC1 ?
A) 0.0

Q) Any idea what this test logged for O=c1c(O)cccc2cc(O)c(O)c(O)c12 ?
A) 0.0

Q) Any idea what this test logged for COc1cc(Nc2ncc(F)c(Nc3ccc4c(n3)NC(=O)C(C)(C)O4)n2)cc(OC)c1OC ?
A) 0.0

Q) Any idea what this test logged for CS(=O)(=O)CCNCc1ccc(-c2ccc3ncnc(Nc4ccc(OCc5cccc(F)c5)c(C(F)(F)F)c4)c3c2)o1 ?
A) 0.0

Q) Any idea what this test logged for O=C(O)c1ccc(S(=O)(=O)Nc2ccc3oc4c(c3c2)C(=O)CCC4)cc1 ?
A) 0.0

Q) Any idea what this test logged for Clc1ccc(C2=Nn3c(nnc3-c3cc(Cl)cc(Cl)c3Cl)SC2)cc1 ?
A) 0.0

Q) Any idea what this test logged for CN(C)C/C=C/C(=O)Nc1cc2c(Nc3ccc(F)c(Cl)c3F)ncnc2cc1OCCOC(F)F ?
A) 0.0

* * *

System: SNB-75 CNS
Assay info: NCI tumour cell line growth inhibition, 48 h; in the data active means GI50 below about 0.43 µM; inactive means the rest
Reply using exactly one outcome from y for active, n for inactive

Consider the following illustrative entries.
1. CCCCCCCCCCCCCCCC[N+](C)(CCO)Cc1cnc[nH]1 (stereo not drawn) ... n
2. CC#C/C(=N\OC[C@H]1COCCN1)c1ccc2ncnc(Nc3ccc(OCc4cccc(F)c4)c(Cl)c3)c2c1 ... n
3. COc1cc2c3c(n(CCCNCCCNCCCNCCCN)c(=O)c2cc1OC)-c1cc2c(cc1C3=O)OCO2 ... n
4. COC(=O)c1c(O)c([N+](=O)[O-])cc2c1c1c(n2Cc2ccccc2)C(=O)c2ccccc2C1=O ... n
5. Nc1nc2cc3ccc(C4CC(O)C(CO)O4)cc3cc2c(=O)[nH]1 (stereo not drawn) ... n
6. COc1ccc(-c2nc(C(=O)c3ccccc3)n(CC(=O)c3ccccc3)c2-c2ccc(OC)cc2)cc1 ... n
7. COC1C(O)C(C)OC(OC2C(Oc3cccc4c(O)c5c(=O)oc6ccc(C)c7c(=O)oc(c34)c5c67)OC(C)C(O)C2O)C1O (stereo not drawn) ... n

In the following, a different compound is considered.
Q) Any idea what this test logged for COC(=O)Nc1nc2ccc(C(=O)c3ccc(N(C)C4COC4)cc3)cc2[nH]1 ?
A) y

Data provenance: PubChem BioAssay (NCI)
